tested on: human apolipoprotein B mRNA; assay: Inhibition of human apolipoprotein B mRNA levels in HepG2 cells, quantitative real-time PCR; assay type: cell-based; settings: HepG2 cells, 75 nM oligonucleotide, normalized to untreated control, average of two experiments
In the oligonucleotide strings, read from the 5' end, every base follows the letter of its sugar. An asterisk marks phosphorothioate; unmarked linkages are phosphodiester. Other units and linkages are bracketed, terminal groups are in braces. A string of capitals states the bases alone. e = 2'-O-(2-methoxyethyl) (MOE); [5mC] = 5-methylcytosine; d = 2'-deoxy (DNA)
Item-by-item account of % inhibition of apolipoprotein B mRNA levels
Report the figure in % without appending any unit label.

308651 (antisense GCCTCAGTCTGCTTCGCGCC; 7-10-3 2'-MOE gapmer, phosphorothioate, chemistry not fully specified) [compound 308651]: 84
301012 (eG*e[5mC]*e[5mC]*eT*e[5mC]*dA*dG*dT*d[5mC]*dT*dG*d[5mC]*dT*dT*d[5mC]*eG*e[5mC]*eA*e[5mC]*e[5mC]) [compound 301012]: 90
308658 (antisense AGGTTACCAGCCACATGCAG; 9-10-1 2'-MOE gapmer, phosphorothioate, chemistry not fully specified) [compound 308658]: 73
271009 (antisense eG*e[5mC]*e[5mC]*eT*e[5mC]*dA*dG*dT*d[5mC]*dT*dG*d[5mC]*dT*dT*d[5mC]*eG*e[5mC]*eG*e[5mC]*e[5mC]) [compound 271009]: 92
281625 (antisense eA*eG*eG*eT*eT*dA*d[5mC]*d[5mC]*dA*dG*d[5mC]*d[5mC]*dA*d[5mC]*dA*eT*eG*e[5mC]*eA*eG) [compound 281625]: 83
308638 (GCCTCAGTCTGCTTCGCACC; 1-10-9 MOE gapmer, phosphorothioate, chemistry not fully specified) [compound 308638]: 91

// next entry
What does the data say about its % inhibition of apolipoprotein B mRNA levels? Entry: 308642 (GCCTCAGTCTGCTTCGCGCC; 3-10-7 MOE gapmer, phosphorothioate, chemistry not fully specified) [compound 308642] 91

* * *

tested on: human apolipoprotein B mRNA; experiment: Inhibition of human apolipoprotein B mRNA levels in HepG2 cells, quantitative real-time PCR; assay type: cell-based; conditions: HepG2 cells; 150 nM; 24 hour (Table 40)
In the oligonucleotide strings, read from the 5' end, every base follows the letter of its sugar. An asterisk marks phosphorothioate; unmarked linkages are phosphodiester. Other units and linkages are bracketed, terminal groups are in braces. A string of capitals states the bases alone. e = 2'-O-(2-methoxyethyl) (MOE); [5mC] = 5-methylcytosine; d = 2'-deoxy (DNA)
experimental endpoint: % Change in apolipoprotein B mRNA expression

Consider the following illustrative entries.
332775 (antisense GCCTCATTATTATTATCACC; sugars from the 5' end e5 d10 e5, all phosphorothioate, methylation of C not given here) [compound 332775]: +10%
301012 (eG*e[5mC]*e[5mC]*eT*e[5mC]*dA*dG*dT*d[5mC]*dT*dG*d[5mC]*dT*dT*d[5mC]*eG*e[5mC]*eA*e[5mC]*e[5mC]) [compound 301012]: −75%
332774 (antisense GCCTCATTATTATTAGCACC; sugars from the 5' end e5 d10 e5, all phosphorothioate, methylation of C not given here) [compound 332774]: +66%
332773 (antisense GCCTCATTATTATTCGCACC; sugars from the 5' end e5 d10 e5, all phosphorothioate, methylation of C not given here) [compound 332773]: +80%
332769 (antisense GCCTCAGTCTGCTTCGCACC; all 2'-MOE, all phosphorothioate, methylation of C not given here) [compound 332769]: −14%

Which % Change in apolipoprotein B mRNA expression is reported with human apolipoprotein B mRNA for this entry: 332770 (antisense GCCTCAGTCTTCTTCGCACC; sugars from the 5' end e5 d10 e5, all phosphorothioate, methylation of C not given here) [compound 332770] ? −22%

Hey, just so you know, these numbers are from patent US7803930B2.
